Biological target: Cathepsin S (Homo sapiens)
Sequence (P25774 115-331, species assumed): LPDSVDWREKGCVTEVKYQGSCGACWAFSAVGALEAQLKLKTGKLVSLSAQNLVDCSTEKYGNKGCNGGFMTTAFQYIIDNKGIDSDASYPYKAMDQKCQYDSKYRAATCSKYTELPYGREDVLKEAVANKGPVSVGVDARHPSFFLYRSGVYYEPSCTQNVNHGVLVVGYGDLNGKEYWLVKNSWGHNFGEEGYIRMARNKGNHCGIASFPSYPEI
Assay: Cathepsin S inhibition assay (fluorogenic peptide substrate)
Format: biochemical
Settings: Table II, compounds of Formula I; read-out: Ki Cat. S
Reported Ki values for the following molecules.

Below are worked cases with known answers.
COc1ccc(NCCNC(=O)C(NC(=O)c2cccc(C)c2)c2ccc(OC)cc2)cc1 (centres unmarked)    < 1000 nM
COc1ccc(NCCNC(=O)[C@H](CC2CCCCC2)NC(=O)c2cccc(Cl)c2)cc1    < 100 nM
O=C(N[C@@H](CC1CCCCC1)C(=O)NCCNc1ccc(OC(F)(F)F)cc1)C1CCN(c2ncc(Br)cn2)CC1    < 1000 nM
COc1ccc(NCCNC(=O)C(NC(=O)c2ccc(-c3cccc(C(F)(F)F)c3)o2)c2ccccc2)cc1 (racemic)    < 1000 nM
COc1ccc(NCCNC(=O)[C@H](CC2CCCCC2)NC(=O)c2cccc(Cl)c2F)cc1    < 100 nM
O=C(N[C@@H](CC1CCCCC1)C(=O)NCCNc1ccc(OC(F)(F)F)cc1)c1ccc(OC(F)F)cc1    < 100 nM
COc1ccc(NCCNC(=O)[C@H](Cc2ccc(-c3cccnc3)cc2)NC(=O)c2cccc(C)c2)cc1    < 100 nM
COc1ccc(NCCNC(=O)C(NC(=O)c2cccc(C)c2)c2ccc(OCc3ccccc3)cc2)cc1 (centres unmarked)    < 1000 nM

// query Please respond with reported Ki (system Cathepsin S (Homo sapiens)) for O=C(Cc1ccc(Cl)cc1)N[C@@H](CC1CCCCC1)C(=O)NCCNc1ccc(F)cc1 .
// result < 100 nM

// query Please respond with reported Ki (system Cathepsin S (Homo sapiens)) for O=C(N[C@@H](CC1CCCCC1)C(=O)NCCNc1ccccc1C(=O)O)c1ccc(-c2cccc(C(F)(F)F)c2)o1 .
// result < 100 nM

// query Please respond with reported Ki (system Cathepsin S (Homo sapiens)) for COc1ccc(NCCNC(=O)[C@H](CCC2CCCCC2)NC(=O)c2sc(N)nc2C)cc1 .
// result < 1000 nM
